molecules and their reported growth inhibition
# Tested on: SUDIPGIV (diffuse intrinsic pontine glioma line)
# Run Description: growth inhibition (% activity, log2 RLU normalised to DMSO / staurosporine); higher = more growth inhibition
# Condition Summary: 33 µM
Respond with the bare value in %.

Example cases with answers are listed next.
CC[C@H](C)C(=O)O[C@H]1C[C@H](O)C=C2C=C[C@H](C)[C@H](CC[C@@H](O)C[C@@H](O)CC(=O)O)[C@H]21	1.99
Cc1ccc(N(CC2=NCCN2)c2cccc(O)c2)cc1	-4.67
C1N2CN3CN1CN(C2)C3	1.56
O=C(OCC(O)CO)c1ccccc1Nc1ccnc2cc(Cl)ccc12 (configuration not stated)	-4.61
C=C[C@]1(C)C[C@@H](OC(=O)CSC(C)(C)CNC(=O)[C@H](N)C(C)C)[C@]2(C)[C@H](C)CC[C@]3(CCC(=O)[C@H]32)[C@@H](C)[C@@H]1O	29.9

Given the molecule N#CC[C@H](C1CCCC1)n1cc(-c2ncnc3[nH]ccc23)cn1 , what is its reported growth inhibition?
-1.09

Given the molecule CN(C)CCCN1c2ccccc2CCc2ccc(Cl)cc21 , what is its reported growth inhibition?
7.66

Given the molecule CC(=O)OCC(=O)[C@H]1CC[C@H]2[C@@H]3CCC4=CC(=O)CC[C@]4(C)[C@H]3CC[C@]12C , what is its reported growth inhibition?
-2

Given the molecule CCC1=C(C)CN(C(=O)NCCc2ccc(S(=O)(=O)NC(=O)N[C@H]3CC[C@H](C)CC3)cc2)C1=O , what is its reported growth inhibition?
-0.00514

Given the molecule NCCCC(O)(P(=O)(O)O)P(=O)(O)O , what is its reported growth inhibition?
-0.208

Given the molecule O=C(O)CCCC[C@@H]1SC[C@@H]2NC(=O)N[C@@H]21 , what is its reported growth inhibition?
1.07

Given the molecule O=C1c2cccc3c2[C@H](CCC3)CN1[C@@H]1CN2CCC1CC2 , what is its reported growth inhibition?
-0.551

Given the molecule CNC[C@H](O)c1cccc(O)c1 , what is its reported growth inhibition?
0.826

Given the molecule COc1cc(C(=O)NS(=O)(=O)c2ccccc2C)ccc1Cc1cn(C)c2ccc(NC(=O)OC3CCCC3)cc12 , what is its reported growth inhibition?
-0.0974

Given the molecule Cc1ccc(-c2cc(C(F)(F)F)nn2-c2ccc(S(N)(=O)=O)cc2)cc1 , what is its reported growth inhibition?
-5.64

Given the molecule C=C1CC[C@H](O)C/C1=C/C=C1\CCC[C@]2(C)[C@@H]([C@H](C)/C=C/[C@H](C)C(C)C)CC[C@@H]12 , what is its reported growth inhibition?
3.53

Given the molecule CC(C)c1nc(N(C)S(C)(=O)=O)nc(-c2ccc(F)cc2)c1C=CC(O)CC(O)CC(=O)O (configuration not stated) , what is its reported growth inhibition?
21.5

Given the molecule CCOC(=O)[C@H](CCc1ccccc1)N[C@H]1CCc2ccccc2N(CC(=O)O)C1=O , what is its reported growth inhibition?
-2.69

Given the molecule CC(=O)OCC(=O)[C@@]12OC(C)(C)O[C@@H]1C[C@H]1[C@@H]3C[C@H](F)C4=CC(=O)C=C[C@]4(C)[C@@]3(F)[C@@H](O)C[C@@]12C , what is its reported growth inhibition?
-2.88

Given the molecule O=P(O)(O)C(Cl)(Cl)P(=O)(O)O , what is its reported growth inhibition?
0.894

Given the molecule CCC(=O)OCC(=O)[C@@]1(OC(=O)CC)[C@@H](C)C[C@H]2[C@@H]3CCC4=CC(=O)C=C[C@]4(C)[C@@]3(Cl)[C@@H](O)C[C@@]21C , what is its reported growth inhibition?
-1.55

Given the molecule O=C1[C@H](CC[C@H](O)c2ccc(F)cc2)[C@@H](c2ccc(O)cc2)N1c1ccc(F)cc1 , what is its reported growth inhibition?
-2.25
